testName: Test on the solubility of glibenclamide in additive/cyclodextrin solutions
Type: physicochemical
conditionNotes: 25 °C, aqueous with cosolvent or surfactant or cyclodextrin, thermodynamic from solid, sodium hydrogen carbonate 4% (w/v), 2-hydroxypropyl-β-cyclodextrin 0.5% (w/v), read-out: Solubility
quantity: solubility at 1 h (µg/mL)
One number for each entry, in µg/mL.

IN: Quick one: solubility at 1 h of COc1ccc(Cl)cc1C(=O)NCCc1ccc(S(=O)(=O)NC(=O)NC2CCCCC2)cc1 [glibenclamide] ?
OUT: 320

----------
testName: Test on the solubility of glibenclamide in additive/cyclodextrin solutions
Type: physicochemical
conditionNotes: 25 °C, aqueous with cosolvent or surfactant or cyclodextrin, thermodynamic from solid, meglumine 0% (w/v), 2-hydroxypropyl-β-cyclodextrin 2.5% (w/v), read-out: Solubility
quantity: solubility at 1 h (µg/mL)
One number for each entry, in µg/mL.

IN: Need solubility at 1 h of COc1ccc(Cl)cc1C(=O)NCCc1ccc(S(=O)(=O)NC(=O)NC2CCCCC2)cc1 [glibenclamide] , thanks.
OUT: 5.8

----------
testName: Test on the solubility of glibenclamide in additive/cyclodextrin solutions
Type: physicochemical
conditionNotes: 25 °C, aqueous buffer, thermodynamic from solid, meglumine 0.5% (w/v), cyclodextrin 0% (w/v), read-out: Solubility
quantity: solubility at 1 h (µg/mL)
Answers are plain numbers, in µg/mL.

IN: # query: solubility at 1 h of entry COc1ccc(Cl)cc1C(=O)NCCc1ccc(S(=O)(=O)NC(=O)NC2CCCCC2)cc1 [glibenclamide]
OUT: 1760

----------
testName: Test on the solubility of glibenclamide in additive/cyclodextrin solutions
Type: physicochemical
conditionNotes: 25 °C, aqueous with cosolvent or surfactant or cyclodextrin, thermodynamic from solid, sodium hydroxide 0.01% (w/v), cyclodextrin from 0.5% (w/v) to 10% (w/v), read-out: water solubility of glibenclamide
Protocol: An excess amount of glibenclamide powder was added into an aqueous solution comprising different proportion of additive (e.g., meglumine, sodium carbonate, sodium hydrogen carbonate or sodium hydroxide) and cyclodextrin (hydroxypropyl-β-cyclodextrin) to form a suspension. The suspension was placed in a constant shaking incubator, and shaken for 1 h at 25±1° C. […]
quantity: solubility at 1 h

IN: Entry COc1ccc(Cl)cc1C(=O)NCCc1ccc(S(=O)(=O)NC(=O)NC2CCCCC2)cc1 [glibenclamide] : reported solubility at 1 h = ?
OUT: 140 to 1260 µg/mL

----------
testName: Test on the solubility of glibenclamide in additive/cyclodextrin solutions
Format: physicochemical
conditionNotes: 25 °C, aqueous with cosolvent or surfactant or cyclodextrin, thermodynamic from solid, meglumine 0.1% (w/v), 2-hydroxypropyl-β-cyclodextrin 10% (w/v), read-out: Solubility
quantity: solubility at 1 h
Phrase the answer as number then unit, nothing more needed.

IN: # query: solubility at 1 h of entry COc1ccc(Cl)cc1C(=O)NCCc1ccc(S(=O)(=O)NC(=O)NC2CCCCC2)cc1 [glibenclamide]
OUT: 2170 µg/mL

----------
testName: Test on the solubility of glibenclamide in additive/cyclodextrin solutions
Assay type: physicochemical
conditionNotes: 25 °C, aqueous with cosolvent or surfactant or cyclodextrin, thermodynamic from solid, sodium carbonate 0.1% (w/v), 2-hydroxypropyl-β-cyclodextrin 20% (w/v), read-out: Solubility
quantity: solubility at 1 h (mg/mL)
One number for each entry, in mg/mL.

IN: State the recorded solubility at 1 h for this entry: COc1ccc(Cl)cc1C(=O)NCCc1ccc(S(=O)(=O)NC(=O)NC2CCCCC2)cc1 [glibenclamide]
OUT: 10.6
